All figures here come from the supplement of paper PMC10369915.

biological target: SHP2 N-SH2 domain T42A; assay: log2 enrichment relative to wild-type ITIM peptide; higher = stronger binding
Each item that follows carries a reported log2 enrichment.

{"columns": ["BINDER", "log2 enrichment"],
 "data": [
  ["VFSVDYEELDF [PD-1 ITIM pTyr223 peptide variant G224E]", -0.506],
  ["VFSVDYGELDH [PD-1 ITIM pTyr223 peptide variant F228H]", -1.32],
  ["VFSVDYGFLDF [PD-1 ITIM pTyr223 peptide variant E225F]", -0.82],
  ["VHSVDYGELDF [PD-1 ITIM pTyr223 peptide variant F219H]", 0.536],
  ["VFSVDYCELDF [PD-1 ITIM pTyr223 peptide variant G224C]", -0.184],
  ["VFSVDYGELDE [PD-1 ITIM pTyr223 peptide variant F228E]", -1.51],
  ["VFSVDYGELHF [PD-1 ITIM pTyr223 peptide variant D227H]", -0.826],
  ["VFSFDYGELDF [PD-1 ITIM pTyr223 peptide variant V221F]", -1.03],
  ["YFSVDYGELDF [PD-1 ITIM pTyr223 peptide variant V218Y]", -0.0716],
  ["VFSVDYGELQF [PD-1 ITIM pTyr223 peptide variant D227Q]", -0.79],
  ["VFFVDYGELDF [PD-1 ITIM pTyr223 peptide variant S220F]", -0.202],
  ["VFSVDYGELFF [PD-1 ITIM pTyr223 peptide variant D227F]", -0.714],
  ["VFSVDYMELDF [PD-1 ITIM pTyr223 peptide variant G224M]", -0.224],
  ["VFSVDYGELDW [PD-1 ITIM pTyr223 peptide variant F228W]", 0.678],
  ["VFSVDYGGLDF [PD-1 ITIM pTyr223 peptide variant E225G]", -1.11],
  ["VFSVDYGALDF [PD-1 ITIM pTyr223 peptide variant E225A]", -0.501]
]}
